- TARGET_OR_SYSTEM: LmDHFR-TS (Leishmania major)
- Sequence (P07382 whole entry): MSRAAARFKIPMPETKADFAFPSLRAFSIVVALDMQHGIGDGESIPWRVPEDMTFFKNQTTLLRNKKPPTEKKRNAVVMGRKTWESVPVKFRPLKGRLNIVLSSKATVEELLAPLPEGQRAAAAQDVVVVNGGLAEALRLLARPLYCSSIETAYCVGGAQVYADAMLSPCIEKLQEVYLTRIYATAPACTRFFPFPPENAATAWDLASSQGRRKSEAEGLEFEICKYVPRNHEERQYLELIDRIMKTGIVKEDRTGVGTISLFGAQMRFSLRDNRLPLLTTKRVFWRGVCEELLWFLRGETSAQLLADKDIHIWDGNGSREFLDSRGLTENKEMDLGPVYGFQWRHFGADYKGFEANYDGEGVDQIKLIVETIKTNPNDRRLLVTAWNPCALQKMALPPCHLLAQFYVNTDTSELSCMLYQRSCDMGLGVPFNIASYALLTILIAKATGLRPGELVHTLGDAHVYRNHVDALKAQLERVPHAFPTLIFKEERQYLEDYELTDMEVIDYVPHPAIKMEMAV
- PROTOCOL_DETAILS: LmDHFR-TS inhibition, spectrophotometric DHF reduction assay (dose-response)
- DETAILS: recombinant LmDHFR-TS; 40, 20 and 10 µM tested; standard errors within ± 10%
MEASUREMENT_LABEL: IC50 (µM)

Here's what some known entries look like.
# MOLECULE, TARGET_OR_SYSTEM, MEASUREMENT_LABEL, QUANTITATIVE_READOUT
records = [
    ("COc1ccc(Oc2ccc(C(C)N(C)c3ncc4c(N)nc(N)nc4n3)cc2)cc1 (centres unmarked)", "LmDHFR-TS (Leishmania major)", "IC50", 16.6),
    ("CN(Cc1cc2ccccc2s1)c1ncc2c(N)nc(N)nc2n1", "LmDHFR-TS (Leishmania major)", "IC50", 24.4),
    ("CC(c1ccc2c(c1)CCCC2)N(C)c1ncc2c(N)nc(N)nc2n1 (centres unmarked)", "LmDHFR-TS (Leishmania major)", "IC50", 6.9),
    ("CCCc1nc2nc(N)nc(N)c2cc1CC", "LmDHFR-TS (Leishmania major)", "IC50", 19.4),
    ("CC(c1cc(Cl)cc(Cl)c1)N(C)c1ncc2c(N)nc(N)nc2n1 (centres unmarked)", "LmDHFR-TS (Leishmania major)", "IC50", 20.1),
]

1: O=C1NCCn2ccc(Nc3nc(N[C@H]4CC[C@H](O)CC4)ncc3Cl)c21
2: COc1ccccc1-c1c(C)[nH]c2nc(N)nc(C)c12
**Query** Could you tell me which of 1 and 2 has the lower IC50 reading? // respond with label for picked entry
**Result** 1
(1: 25.8 µM, 2: 40 µM)
